Cited source for all entries: patent US10919902B2

# target_desc: recombinant human HDACs (Homo sapiens)
# measurement_protocol: HDAC enzymatic assay
# Assay type: biochemical
# condition_summary: 5 nM HDAC enzyme, 5 h pre-incubation, 17 h reaction at 25° C.; isoform not given; read-out: IC50
endpoint_label: IC50

Q) Form: Entry = Nc1ccc(-c2ccco2)nc1NC(=O)N1CC2CN(Cc3ccccc3F)CC2C1 (stereo not drawn) | System = recombinant human HDACs (Homo sapiens) | IC50 = ____
A) > 5000 nM

Q) What do you have for Cc1cc2c(cn1)CN(C(=O)Nc1nc(-c3ccc(F)cc3)ccc1N)C2 ?
A) 100 to 500 nM

Q) What do you have for Nc1ccc(-c2ccc(F)cc2)nc1NC(=O)N1Cc2ccc(CN3CCC(F)(F)C3)cc2C1 ?
A) 100 to 500 nM

Q) What do you have for CN1CCn2cc(C(=O)Nc3nc(-c4ccccc4)ccc3N)nc2C1 ?
A) 500 to 5000 nM

Q) What do you have for CC(O)c1ccc2c(c1)CN(C(=O)Nc1nc(-c3ccc(F)cc3)ccc1N)C2 (stereo not drawn) ?
A) 100 to 500 nM

Q) What do you have for Nc1ccc(-c2cccnc2)nc1NC(=O)c1nc2c(s1)CCN(CCF)C2 ?
A) 500 to 5000 nM

Q) What do you have for COc1ccc(-c2ccc(N)c(NC(=O)N3Cc4ccncc4C3)n2)cc1 ?
A) 500 to 5000 nM

Q) What do you have for Nc1ccc(-c2ccc(F)cc2)nc1NC(=O)N1Cc2cc(N3CCC3)cnc2C1 [Compound 157] ?
A) 100 to 500 nM

Q) What do you have for Cc1cnc(C(=O)Nc2nc(-c3ccc(F)cc3)ccc2N)s1 ?
A) 100 to 500 nM

Q) What do you have for Nc1ccc(-c2cccs2)nc1NC(=O)N1Cc2ccc(CN3CCCC3)cc2C1 ?
A) 100 to 500 nM

Q) What do you have for COCc1ccc2c(c1)CN(C(=O)Nc1nc(-c3ccc(F)cc3)ccc1N)C2 ?
A) 100 to 500 nM

Q) What do you have for COc1ccc(-c2ccc(N)c(NC(=O)N3Cc4cc(F)cnc4C3)n2)cc1 ?
A) 500 to 5000 nM
